Source: the supplement of paper PMC3334620

# PBM E-score per record follows
- ASSAY TARGET: Ylr278c (UniProt Q05854)
- Sequence (Q05854 whole entry): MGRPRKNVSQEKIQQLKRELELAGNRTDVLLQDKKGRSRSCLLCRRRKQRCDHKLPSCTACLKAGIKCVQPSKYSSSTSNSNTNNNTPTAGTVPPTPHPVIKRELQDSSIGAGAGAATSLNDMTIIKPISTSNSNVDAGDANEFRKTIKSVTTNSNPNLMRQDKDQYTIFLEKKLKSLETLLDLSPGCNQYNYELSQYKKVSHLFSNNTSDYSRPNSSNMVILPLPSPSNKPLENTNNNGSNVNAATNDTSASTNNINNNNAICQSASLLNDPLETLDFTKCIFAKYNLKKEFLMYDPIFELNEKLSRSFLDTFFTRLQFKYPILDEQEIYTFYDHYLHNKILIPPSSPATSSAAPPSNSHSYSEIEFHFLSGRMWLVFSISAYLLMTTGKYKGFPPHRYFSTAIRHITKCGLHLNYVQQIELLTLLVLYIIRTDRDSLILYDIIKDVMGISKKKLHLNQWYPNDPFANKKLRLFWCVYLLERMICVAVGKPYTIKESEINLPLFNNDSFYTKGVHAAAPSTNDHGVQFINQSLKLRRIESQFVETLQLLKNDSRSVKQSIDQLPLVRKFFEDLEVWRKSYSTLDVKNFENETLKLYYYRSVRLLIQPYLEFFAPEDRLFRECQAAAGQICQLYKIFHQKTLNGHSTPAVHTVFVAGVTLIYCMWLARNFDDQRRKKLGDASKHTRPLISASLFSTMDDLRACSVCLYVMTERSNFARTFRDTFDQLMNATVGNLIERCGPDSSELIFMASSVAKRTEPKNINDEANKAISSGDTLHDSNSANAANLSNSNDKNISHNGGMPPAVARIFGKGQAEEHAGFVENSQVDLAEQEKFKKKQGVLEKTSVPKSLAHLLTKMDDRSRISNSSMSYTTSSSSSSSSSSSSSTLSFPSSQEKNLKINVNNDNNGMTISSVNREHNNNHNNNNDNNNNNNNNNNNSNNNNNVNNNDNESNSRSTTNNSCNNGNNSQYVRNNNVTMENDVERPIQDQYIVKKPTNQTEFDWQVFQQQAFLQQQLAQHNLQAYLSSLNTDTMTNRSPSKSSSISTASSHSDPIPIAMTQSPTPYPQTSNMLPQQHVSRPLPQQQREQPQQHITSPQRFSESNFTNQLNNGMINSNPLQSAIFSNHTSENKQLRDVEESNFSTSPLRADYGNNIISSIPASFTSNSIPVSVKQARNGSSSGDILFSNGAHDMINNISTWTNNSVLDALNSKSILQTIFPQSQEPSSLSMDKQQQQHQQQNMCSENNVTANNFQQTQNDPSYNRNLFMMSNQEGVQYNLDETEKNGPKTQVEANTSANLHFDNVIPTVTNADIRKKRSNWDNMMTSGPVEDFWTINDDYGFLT
- TEST PROTOCOL: PBM E-score (8-mer binding enrichment) (E-score (-0.5 to 0.5)); higher = stronger / more preferred TF binding
- TEST SETTINGS: protein concentration: 200 nM; construct: GST-DNA-binding domain
The full ranking holds about 33,000 sequences; the median of “E-score (-0.5 to 0.5)” is about -0.054, and the highest 2% start at about 0.39. What follows is part of a selection rich in the highest values, with near analogues and random picks from the rest.
OBSERVATION TYPE: PBM E-score

- SEQ TEXT: "CGGCGGAG"
  READOUT VALUE: 0.461
- SEQ TEXT: "TATATCCA"
  READOUT VALUE: -0.171
- SEQ TEXT: "AAACTCTG"
  READOUT VALUE: -0.126
- SEQ TEXT: "CAGAATGG"
  READOUT VALUE: -0.0518
- SEQ TEXT: "CCGGGATC"
  READOUT VALUE: 0.411
- SEQ TEXT: "CGGCGGCC"
  READOUT VALUE: 0.322
- SEQ TEXT: "GTCCGCGA"
  READOUT VALUE: 0.313

----------
- ASSAY TARGET: Ylr278c (UniProt Q05854)
- TEST PROTOCOL: PBM E-score (8-mer binding enrichment) (E-score (-0.5 to 0.5)); higher = stronger / more preferred TF binding
- TEST SETTINGS: protein concentration: 200 nM; construct: GST-DNA-binding domain
Whole data set: some 33,000 sequences, median “E-score (-0.5 to 0.5)” near -0.054, cut for the highest 2% near 0.39. Only a selection was taken, and the highest values are over-represented in it overall.
Parameter threshold = 0.06. Response is yes when PBM E-score meets or exceeds it, else no.

- SEQ TEXT: "AACCGGGG"
  LABEL: "yes"
- SEQ TEXT: "CACGGAGA"
  LABEL: "yes"
- SEQ TEXT: "CCCAGTCA"
  LABEL: "no"
- SEQ TEXT: "CCGATTTA"
  LABEL: "yes"
- SEQ TEXT: "ATCAAGGG"
  LABEL: "no"
- SEQ TEXT: "GACGGAGA"
  LABEL: "yes"
- SEQ TEXT: "AATTCTGT"
  LABEL: "no"
- SEQ TEXT: "CACGGACC"
  LABEL: "yes"
- SEQ TEXT: "CCGATTCG"
  LABEL: "yes"
- SEQ TEXT: "CTCCGGGC"
  LABEL: "yes"

----------
- ASSAY TARGET: Ylr278c (UniProt Q05854)
- TEST PROTOCOL: PBM E-score (8-mer binding enrichment) (E-score (-0.5 to 0.5)); higher = stronger / more preferred TF binding
- TEST SETTINGS: protein concentration: 200 nM; construct: GST-DNA-binding domain
In all, about 33,000 sequences were measured (“E-score (-0.5 to 0.5)”: median about -0.054, highest 2% from about 0.39 on). Only a selection was taken, and the highest values are over-represented in it overall.
# PBM E-score per record follows

- SEQ TEXT: "ACCTCAAT"
  PBM E-score: -0.178
- SEQ TEXT: "TCCGCGAA"
  PBM E-score: 0.343
- SEQ TEXT: "TCACCGAA"
  PBM E-score: 0.178
- SEQ TEXT: "CTAGGCAA"
  PBM E-score: -0.0858
- SEQ TEXT: "ATACCGTC"
  PBM E-score: 0.153
- SEQ TEXT: "ATGGTGTG"
  PBM E-score: -0.23
- SEQ TEXT: "ATCTCCGA"
  PBM E-score: 0.478
- SEQ TEXT: "CGCCGTAA"
  PBM E-score: 0.28
- SEQ TEXT: "GCACCGGA"
  PBM E-score: 0.429
- SEQ TEXT: "TGCCGGCA"
  PBM E-score: 0.347
- SEQ TEXT: "ATTAGGGA"
  PBM E-score: -0.0669
- SEQ TEXT: "GGGATTTA"
  PBM E-score: 0.287
- SEQ TEXT: "AGACTCCC"
  PBM E-score: -0.167
- SEQ TEXT: "CGGATGTA"
  PBM E-score: 0.307
- SEQ TEXT: "ACACCGGA"
  PBM E-score: 0.416
- SEQ TEXT: "CGCCGGTA"
  PBM E-score: 0.352
- SEQ TEXT: "ATGTCGGA"
  PBM E-score: 0.397
- SEQ TEXT: "GTGTCGCA"
  PBM E-score: 0.00208
- SEQ TEXT: "AGGCTTAA"
  PBM E-score: -0.00203
- SEQ TEXT: "GTATGGCA"
  PBM E-score: -0.204
- SEQ TEXT: "CAGGAGAA"
  PBM E-score: 0.0274
- SEQ TEXT: "CCACCGGC"
  PBM E-score: 0.295
- SEQ TEXT: "AGCCGGAG"
  PBM E-score: 0.455
- SEQ TEXT: "AGGAGTGC"
  PBM E-score: -0.139
- SEQ TEXT: "CTGAGTGC"
  PBM E-score: -0.133
- SEQ TEXT: "CGCCGAAC"
  PBM E-score: 0.315
- SEQ TEXT: "AATAAGAC"
  PBM E-score: -0.228
- SEQ TEXT: "CCACCGGA"
  PBM E-score: 0.455
- SEQ TEXT: "ACACCGGT"
  PBM E-score: 0.324
- SEQ TEXT: "AAGCCTCC"
  PBM E-score: 0.0849
- SEQ TEXT: "ATCTCCCC"
  PBM E-score: -0.00596
- SEQ TEXT: "ATACCTTC"
  PBM E-score: 0.0292
- SEQ TEXT: "CTGGAGAC"
  PBM E-score: -0.222
- SEQ TEXT: "CCATAGGG"
  PBM E-score: -0.154

----------
- ASSAY TARGET: Ylr278c (UniProt Q05854)
- TEST PROTOCOL: PBM E-score (8-mer binding enrichment) (E-score (-0.5 to 0.5)); higher = stronger / more preferred TF binding
- TEST SETTINGS: protein concentration: 200 nM; construct: GST-DNA-binding domain
In all, about 33,000 sequences were measured (“E-score (-0.5 to 0.5)”: median about -0.054, highest 2% from about 0.39 on). Many of the other results were omitted from the sample, so the highest values are more common in it than they were.
# PBM E-score per record follows
OBSERVATION TYPE: PBM E-score

- SEQ TEXT: "AATCCGAG"
  ASSAY TARGET: "Ylr278c (UniProt Q05854)"
  OBSERVATION TYPE: "PBM E-score"
  READOUT VALUE: 0.288
- SEQ TEXT: "AGAAATCG"
  ASSAY TARGET: "Ylr278c (UniProt Q05854)"
  OBSERVATION TYPE: "PBM E-score"
  READOUT VALUE: 0.0562
- SEQ TEXT: "CTGAACCC"
  ASSAY TARGET: "Ylr278c (UniProt Q05854)"
  OBSERVATION TYPE: "PBM E-score"
  READOUT VALUE: -0.0929
- SEQ TEXT: "ACCGGCCG"
  ASSAY TARGET: "Ylr278c (UniProt Q05854)"
  OBSERVATION TYPE: "PBM E-score"
  READOUT VALUE: 0.392
- SEQ TEXT: "ACGGAGTC"
  ASSAY TARGET: "Ylr278c (UniProt Q05854)"
  OBSERVATION TYPE: "PBM E-score"
  READOUT VALUE: 0.398
- SEQ TEXT: "CTGGAGTC"
  ASSAY TARGET: "Ylr278c (UniProt Q05854)"
  OBSERVATION TYPE: "PBM E-score"
  READOUT VALUE: -0.0908
- SEQ TEXT: "CATCCGAC"
  ASSAY TARGET: "Ylr278c (UniProt Q05854)"
  OBSERVATION TYPE: "PBM E-score"
  READOUT VALUE: 0.289
- SEQ TEXT: "AATCCGAT"
  ASSAY TARGET: "Ylr278c (UniProt Q05854)"
  OBSERVATION TYPE: "PBM E-score"
  READOUT VALUE: 0.421

----------
- ASSAY TARGET: Ylr278c (UniProt Q05854)
- TEST PROTOCOL: PBM E-score (8-mer binding enrichment) (E-score (-0.5 to 0.5)); higher = stronger / more preferred TF binding
- TEST SETTINGS: protein concentration: 200 nM; construct: GST-DNA-binding domain
Whole data set: some 33,000 sequences, median “E-score (-0.5 to 0.5)” near -0.054, cut for the highest 2% near 0.39. Many of the other results were omitted from the sample, so the highest values are more common in it than they were.
# PBM E-score per record follows

- SEQ TEXT: "CCCCTTAG"
  ASSAY TARGET: "Ylr278c (UniProt Q05854)"
  PBM E-score: 0.0521
- SEQ TEXT: "ACTCCTTA"
  ASSAY TARGET: "Ylr278c (UniProt Q05854)"
  PBM E-score: -0.0802
- SEQ TEXT: "CCTCCGTA"
  ASSAY TARGET: "Ylr278c (UniProt Q05854)"
  PBM E-score: 0.37
- SEQ TEXT: "AATTTCGT"
  ASSAY TARGET: "Ylr278c (UniProt Q05854)"
  PBM E-score: -0.0607
- SEQ TEXT: "GGCTCGGA"
  ASSAY TARGET: "Ylr278c (UniProt Q05854)"
  PBM E-score: 0.38
- SEQ TEXT: "GCTCCATA"
  ASSAY TARGET: "Ylr278c (UniProt Q05854)"
  PBM E-score: -0.175
- SEQ TEXT: "CCCTCGGC"
  ASSAY TARGET: "Ylr278c (UniProt Q05854)"
  PBM E-score: 0.207
- SEQ TEXT: "AGTCCGTG"
  ASSAY TARGET: "Ylr278c (UniProt Q05854)"
  PBM E-score: 0.343
- SEQ TEXT: "ATAGACCG"
  ASSAY TARGET: "Ylr278c (UniProt Q05854)"
  PBM E-score: 0.0141
